Listed next: entries and their corresponding GI50.
# System: RXF 393
# test-description: NCI tumour cell line growth inhibition, 48 h
The source made the active and inactive calls. Cut-off read from the data, not from the text of the source: active = GI50 up to about 1.1 µM and inactive = higher.

[[record]]
compound = "O=C(O)CC1CC=C[C@H]2c3cc4c(cc3C(=O)NC12)OCO4 (some centres not stated)"
recorded_value = "> 75 µM (inactive)"

[[record]]
compound = "NC(=O)c1cc2ccccc2o/c1=N/c1ccccc1"
recorded_value = "> 100 µM (inactive)"

[[record]]
compound = "CC1(C)OCC2OC(n3cnc4c(N)nc(Cl)nc43)C(OS(C)(=O)=O)C2O1 (configuration not stated)"
recorded_value = "> 100 µM (inactive)"

[[record]]
compound = "O=C(O)C1CCCN1Cc1cc2ccccc2c2ccccc12 (configuration not stated)"
recorded_value = "> 100 µM (inactive)"

[[record]]
compound = "O=C(CSc1nc2ccccc2c(=O)n1-c1ccccc1)N/N=C1\\C(=O)Nc2ccc(Br)cc21"
recorded_value = "2.62 µM (inactive)"


I am curious: what GI50 value has been reported for `O=C(O)c1ccc(/C=N/N=C2c3ccccc3-c3ccccc32)cc1` ?
89.9 µM (inactive)

Now try `O=C(NCCNCCNCCNC(=O)c1cc(-c2ccccc2)nc2ccccc12)c1cc(-c2ccccc2)nc2ccccc12` .
2.02 µM (inactive)

Again, but for `O=C(O)[C@H](c1ccccc1)[C@@H](C(=O)O)c1ccccc1`
> 100 µM (inactive)

Can you check `CC(=O)c1ccc(NC(=O)/C(Cc2ccccn2)=N/NC(=O)C[N+](C)(C)C)cc1` next?
> 100 µM (inactive)

// next record `O=S(=O)(O)c1ccc(/N=N/c2ccc(/N=N/c3c(O)ccc4ccc(S(=O)(=O)O)cc34)cc2)cc1`
> 100 µM (inactive)

Next compound: `N#C/C=C(/NC(=O)Nc1ccccc1)N1CCCC1`
> 100 µM (inactive)

Again, but for CC(=O)O[C@H]1CC[C@H]2[C@@H]3CCC(C(C)=O)[C@H](C(=O)O)[C@H]3CC[C@]12C (some centres not stated)
> 100 µM (inactive)

Continue with `CCCCCCCCCCCCCCCc1nnc(S)[nH]1`
> 100 µM (inactive)

---

# Tested on: HT-29
# test-description: NCI tumour cell line growth inhibition, 48 h
The source made the active and inactive calls. No stated cut-off is given here; in the data, active = GI50 up to about 1.1 µM and inactive = higher.
Please state which outcome applies, choosing from 1.0 for active, 0.0 for inactive

Answered cases to consult:
[[record]]
compound = "CC[n+]1c(/C=C/c2ccc(N(CCCl)CCCl)cc2)ccc2cc(NC(=O)/C=C/c3ccccc3)ccc21"
cat = 1.0

[[record]]
compound = "COc1cc(-c2oc3c(OC)c(OC)cc(O)c3c(=O)c2OC)ccc1O [TERNATIN]"
cat = 0.0

[[record]]
compound = "O=C(/C=C(\\O)C(=O)O)/C=C(\\O)c1ccccc1"
cat = 0.0

[[record]]
compound = "COC1=CC2=NCCc3n[nH]c(c32)C1=O"
cat = 0.0


Test call, this compound: CC(C)=NNC1=NC(C)(C)P(=O)(NNc2ncccn2)S1 (stereo unspecified)
0.0

Another compound to look at: `CS(=O)(=O)OCCN1CCN(C(=O)c2cccc3c(Nc4ccc(S(N)(=O)=O)cc4)c4ccccc4nc23)CC1`
0.0

Do the same for `CN(CCO)CC(=O)CC(O)(C(F)(F)F)C(F)(F)F` please
0.0

Thanks! And `CCN1CN(c2ccccc2)C2(CCN(CCCSc3ccc(F)cc3)CC2)C1=O` ?
0.0

Do the same for `Cc1nc2ccc(Cl)cc2c2c1CCS2` please
0.0

Similarly, `O=C1C=CC=C/C1=C1\N=C(c2ccccc2OCC(=O)c2ccccc2)SS1` ?
0.0

Same question for `C=CCn1c2ccccc2[n+]2cc([N+](=O)[O-])ccc12` please.
0.0
